Give measured CC50 for each item. Keep answers brief.
Tested on: Akata cells
Settings: human

Exam item: Tell me its CC50 given `Cc1ccc(-c2cn([C@@H]3C[C@@H](O)[C@H](CO)O3)c(=O)[nH]c2=O)s1` as the entry.
Marked response: > 100 µM

Exam item: Tell me its CC50 given `Nc1nc(=O)n([C@@H]2C[C@@H](O)[C@H](CO)O2)cc1-c1ccco1` as the entry.
Marked response: > 100 µM

* * *

System: Enterovirus
Test: microbe, parasite or virus in culture
Format: cell-based
experimentalEndpoint: EC50 (µM)
The reply should be a number in µM, with the unit left off.

Exam item: Specify the recorded EC50 for Nc1nc(=O)n([C@@H]2C[C@@H](O)[C@H](CO)O2)cc1-c1ccco1 [CHK-05] , system: Enterovirus.
Marked response: 24

* * *

System: Vero cells
Conditions: African green monkey
experimentalEndpoint: CC50

Exam item: Tell me its CC50 given `Nc1nc(=O)n([C@@H]2C[C@@H](O)[C@H](CO)O2)cc1-c1ccco1` as the entry.
Marked response: > 100 µM

Exam item: Tell me its CC50 given NC(=O)c1nc(F)c[nH]c1=O [Favipiravir, reference compound] as the entry.
Marked response: > 1000 µM

* * *

Tested on: HBV
Experiment: HBV (Tavis) EC50 (Table 8)
Type: cell-based
Conditions: Hepatitis B virus
pEC50: −log10 of the molar value.
experimentalEndpoint: pEC50

Exam item: Specify the recorded pEC50 for `O=c1[nH]c(=O)n([C@@H]2C[C@@H](O)[C@H](CO)O2)cc1-c1cccs1` , system: HBV.
Marked response: > 6.49

* * *

System: Huh7 cells
Conditions: human
experimentalEndpoint: CC50

Exam item: Tell me its CC50 given `Nc1nc(=O)n([C@@H]2C[C@@H](O)[C@H](CO)O2)cc1-c1ccco1` as the entry.
Marked response: > 100 µM

* * *

Test system: Huh7 cells
experimentalEndpoint: CC50

Exam item: Tell me its CC50 given `C#C[C@@]1(O)[C@H](O)[C@@H](CO)O[C@H]1n1ccc2c(N)ncnc21` as the entry.
Marked response: > 100 µM

* * *

Assay: Cytotoxicity in HBV (Tavis) assay (Table 8)
Assay type: cell-based
experimentalEndpoint: CC50

Exam item: Tell me its CC50 given O=c1[nH]c(=O)n([C@@H]2C[C@@H](O)[C@H](CO)O2)cc1-c1cccs1 [CHK-02] as the entry.
Marked response: > 32 µM

* * *

Tested on: CHIKV
Test: CHIKV IC50 (Table 8)
Type: cell-based
Conditions: Chikungunya virus
experimentalEndpoint: IC50 (µM)
The reply should be a number in µM, with the unit left off.

Exam item: Tell me its IC50 given `Nc1nc(=O)n([C@@H]2C[C@@H](O)[C@H](CO)O2)cc1-c1cccs1` as the entry.
Marked response: 76.2
